- Test system: TO-N3-2 (biotin conjugate)
- assay.notes: pull-down binding Z-score (relative to library population); higher = stronger binding
- assay.setup: RNA library: Library-2
pull-down binding Z-score for assorted sequences
experimental.endpoint: pull-down binding Z-score

                              sequence_chain       target_or_test_system      experimental_endpoint  measured
 0  GAGUUUGGAGUCGGUGGGUGGAGCCAAACUG [hsa-mir-6860]  TO-N3-2 (biotin conjugate)  pull-down binding Z-score      1.52
 1  AAUAACUUACCUUUUAAGUUGACAUGUGCAACUACUAGACAAGUUGUU  TO-N3-2 (biotin conjugate)  pull-down binding Z-score     -1.52
 2  AGGGACCCCCGGAGUCUGUCACGGUCUCA [hsa-mir-6784]  TO-N3-2 (biotin conjugate)  pull-down binding Z-score     0.955
 3       UCUUUCAUUUUGGAUUUGACU [hsa-mir-766]  TO-N3-2 (biotin conjugate)  pull-down binding Z-score    -0.612
 4  AGCCCUGUUGUUGUCAGAUAGUGU [hsa-mir-550a-2]  TO-N3-2 (biotin conjugate)  pull-down binding Z-score     0.179
 5  GCUGCCCCUUUGCUCUCUGGGGUAGC [hsa-mir-3614]  TO-N3-2 (biotin conjugate)  pull-down binding Z-score    -0.388
 6                      AACAGGAGUCACCUUUUGUU  TO-N3-2 (biotin conjugate)  pull-down binding Z-score    -0.716
 7  GAAAUAGGCUGCGAAGAUAACAGUAUUUC [hsa-mir-3942]  TO-N3-2 (biotin conjugate)  pull-down binding Z-score    -0.482
 8  UUCAGAUUUUGGAACAUUUCGGAUUUUGGA [hsa-mir-1290]  TO-N3-2 (biotin conjugate)  pull-down binding Z-score     -1.15
 9  UGCAGUGAGCAACCUACACAACUGCA [hsa-mir-5589]  TO-N3-2 (biotin conjugate)  pull-down binding Z-score    -0.188
10  GAACUCUACUAAUGUCACUAUUGCAACCUACUGUACUGGUUCUAUACCUUGUAGUGUUUGUCUUAGUGGUUUAGAUUC [DMSMaPseq_invitro_SARS-CoV-2_Motif_135]  TO-N3-2 (biotin conjugate)  pull-down binding Z-score    -0.471
11  GUUCGGAUGCUCGAACUGCACCUCAUGGUCAUGUUAUGGUUGAGCUGGUAGCAGAACUCGAAGGCAUUCAGUAC [DMSMaPseq_invitro_SARS-CoV-2_Motif_11]  TO-N3-2 (biotin conjugate)  pull-down binding Z-score      1.96
12  UAGUGCAAAGAAUAGAGCUCGCACCGUAGCUGGUGUCUCUAUCUGUAGUACUA  TO-N3-2 (biotin conjugate)  pull-down binding Z-score      0.18
13      CUCAACUCUUGGUCCUCUGAG [hsa-mir-3165]  TO-N3-2 (biotin conjugate)  pull-down binding Z-score     0.545
14    GUUAGACCUGGCCCUCUGUCUAAU [hsa-mir-429]  TO-N3-2 (biotin conjugate)  pull-down binding Z-score       0.3
15  CCCAAUGUUGUUAAACCACACGAAAAGGG [IAV_invivo_PA_3_Motif_15+IAV_invivo_PA_3_Motif_15]  TO-N3-2 (biotin conjugate)  pull-down binding Z-score    -0.323
16     ACUAAUUUUUCCACUAGUUAGU [hsa-mir-4424]  TO-N3-2 (biotin conjugate)  pull-down binding Z-score     -1.16
17  AUGGAGAACGCCCCCACCAGUUCCCAC [hsa-mir-6767]  TO-N3-2 (biotin conjugate)  pull-down binding Z-score      0.67
18            ACAUCAGCUUGUGUUUUGGCUGCUGAAUGU  TO-N3-2 (biotin conjugate)  pull-down binding Z-score    -0.485
19      UGUGUGUCGCUCCGGGUCCACG [hsa-mir-574]  TO-N3-2 (biotin conjugate)  pull-down binding Z-score      1.25
20   CCGCCCUCGUGUCUGUGGCGGUGG [hsa-mir-663a]  TO-N3-2 (biotin conjugate)  pull-down binding Z-score     0.679
21  AAUUAUAAAUUACCAGAUGAUUUUACAGGCUGCGUUAUAGCUUGGAAUUCUAACAAUCUUGAUUCUAAGGUUGGUGGUAAUUAUAAUU  TO-N3-2 (biotin conjugate)  pull-down binding Z-score    -0.712
22  UUUUAUCAUUACUUUUAAUGGCAAAA [hsa-mir-548f-2]  TO-N3-2 (biotin conjugate)  pull-down binding Z-score    -0.404
23        GGGCAGAAAUAGAUGGCCU [hsa-mir-4270]  TO-N3-2 (biotin conjugate)  pull-down binding Z-score      1.07
24  CUGUUGGUACCAAUUUACCUUUACAGCUAGGUUUUUCUACAGGUGUUAACCUAGUUGCUGUACCUACAG  TO-N3-2 (biotin conjugate)  pull-down binding Z-score     -1.02
25  GUGGUUAUACCUACUAAAAAGGCUGGUGGCACUACUGAAAUGCUAGCGAAAGCUUUGAGAAAAGUGCCAACAGACAAUUAUAUAACCAC  TO-N3-2 (biotin conjugate)  pull-down binding Z-score     0.179
26                  UUUUGUCUGA [hsa-mir-553]  TO-N3-2 (biotin conjugate)  pull-down binding Z-score    -0.491
27  CCCGGAAAUAGCAGGAAGACCCAAAGUAAGAGAUCAAGCUGGG [IAV_invivo_HA_4_Motif_10+IAV_invivo_HA_4_Motif_10]  TO-N3-2 (biotin conjugate)  pull-down binding Z-score     0.433
28  GCUUCCACAAGUGCUUUUGUGGAAACUGUGAAAGGUUUGGAUUAUAAAGCAUUCAAACAAAUUGUUGAAUCCUGUGGUAAUUUUAAAGUUACAAAAGGAAAAGC  TO-N3-2 (biotin conjugate)  pull-down binding Z-score    -0.348
29  AGAUCCUGUCUUUCGUAAUCAGCAGCU [hsa-mir-222]  TO-N3-2 (biotin conjugate)  pull-down binding Z-score     0.228
30   GGCUGCUGGAUUGAAUUAGCUGCA [hsa-mir-1286]  TO-N3-2 (biotin conjugate)  pull-down binding Z-score      1.15
31      GAGACUUUAAAAGCGUCUC [hsa-mir-3926-1]  TO-N3-2 (biotin conjugate)  pull-down binding Z-score     -1.01
32  GUGGGGUAUUCAUCACCCGC [IAV_invivo_HA_4_Motif_9+IAV_invivo_HA_4_Motif_9]  TO-N3-2 (biotin conjugate)  pull-down binding Z-score     0.897
33  UGUGGAAAGGGCUAUCAUCUUAUGUCCUUCCCUCA [DMSMaPseq_invitro_SARS-CoV-2_Motif_440]  TO-N3-2 (biotin conjugate)  pull-down binding Z-score    -0.837
34  GGAGGGUGAGCUUUCUGAAAACCCCUCC [hsa-mir-188]  TO-N3-2 (biotin conjugate)  pull-down binding Z-score   -0.0757
35  GCUGAGUUGCCAUUCAGC [IAV_invivo_NA_6_Motif_18+IAV_invivo_NA_6_Motif_18]  TO-N3-2 (biotin conjugate)  pull-down binding Z-score    -0.226
36  CUUGAUUUAAAUGUCCAUACAAUUAAG [hsa-mir-124-1]  TO-N3-2 (biotin conjugate)  pull-down binding Z-score    -0.133
37  AGUUCAAGAACUUUACUCUCCAAUUUUUCUUAUUGUUGCGGCAAUAGUGUUUAUAACACUUUGCUUCACACUCAAAAGAAAGACAGAAUGAUUGAACU  TO-N3-2 (biotin conjugate)  pull-down binding Z-score     -1.13
